- Target system: Aminopeptidase N (Plasmodium falciparum FcB1/Columbia, UniProt O96935)
- Sequence (O96935 whole entry): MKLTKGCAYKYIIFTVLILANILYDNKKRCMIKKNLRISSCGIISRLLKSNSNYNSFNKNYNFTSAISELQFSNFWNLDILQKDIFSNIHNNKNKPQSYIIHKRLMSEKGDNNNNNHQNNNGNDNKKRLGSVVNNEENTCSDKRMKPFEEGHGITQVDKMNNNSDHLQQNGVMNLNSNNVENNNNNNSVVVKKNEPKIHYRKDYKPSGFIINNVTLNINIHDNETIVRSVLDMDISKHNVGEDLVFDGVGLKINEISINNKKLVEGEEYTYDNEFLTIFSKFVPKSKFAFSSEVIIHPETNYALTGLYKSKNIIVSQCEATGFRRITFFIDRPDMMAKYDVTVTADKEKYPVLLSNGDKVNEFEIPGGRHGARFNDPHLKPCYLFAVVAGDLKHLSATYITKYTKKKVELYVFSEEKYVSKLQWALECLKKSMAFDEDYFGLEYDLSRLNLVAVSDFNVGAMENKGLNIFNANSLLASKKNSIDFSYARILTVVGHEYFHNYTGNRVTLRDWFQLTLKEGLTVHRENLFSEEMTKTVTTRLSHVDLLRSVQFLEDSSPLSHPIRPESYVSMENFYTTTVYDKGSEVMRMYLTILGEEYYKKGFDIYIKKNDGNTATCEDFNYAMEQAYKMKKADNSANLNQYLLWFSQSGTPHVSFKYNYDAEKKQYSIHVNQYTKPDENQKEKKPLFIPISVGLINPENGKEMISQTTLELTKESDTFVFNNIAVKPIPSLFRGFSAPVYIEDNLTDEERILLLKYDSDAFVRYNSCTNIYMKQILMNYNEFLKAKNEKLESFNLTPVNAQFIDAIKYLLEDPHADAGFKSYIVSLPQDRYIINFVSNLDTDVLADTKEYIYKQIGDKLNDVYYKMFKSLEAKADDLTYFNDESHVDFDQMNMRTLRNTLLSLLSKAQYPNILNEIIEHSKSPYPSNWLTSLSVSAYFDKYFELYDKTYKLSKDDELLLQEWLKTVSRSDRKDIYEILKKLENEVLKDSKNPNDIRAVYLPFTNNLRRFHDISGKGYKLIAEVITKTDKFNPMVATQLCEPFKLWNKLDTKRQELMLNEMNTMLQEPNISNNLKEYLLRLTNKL
pIC50: −log10 of the molar value.
Readout kind: pIC50

* NCCC(=O)N(CCCN1CCN(CCCNc2ccnc3cc(Cl)ccc23)CC1)CC1CC1 | 4.68
